assay: WST-8/CCK8 cell viability assay; assay type: cell-based; conditions: human, MDA-MB-231 breast cancer cells; 48 h; read-out: IC50 against MDA-MB-231 (cytotoxicity)
ENDPOINT: IC50 at 48 h

## Task Sample CNCCN(C)Cc1nnnn1-c1ccc(OC(C)C)cc1.Cl [9a] — what was its IC50 at 48 h?
## Result > 500 µM

====

Counter-ions that a name gives are not always drawn.
What melting point was measured for each of the following?

{"COMPOUND": "CNCCN(C)Cc1nnnn1-c1cccc(OC(F)(F)F)c1.Cl [9e]", "ENDPOINT": "melting point", "OBS_VALUE": "185.6 to 186.4 °C"}

// input: 3 compounds below; output: melting point for each
1. CC(C)Oc1ccc(-n2nnnc2CN(C)CCN)cc1.Cl [18a]
2. CNCCN(C)Cc1nnnn1-c1ccc(OCC(F)(F)F)cc1.Cl [16c]
3. CNCCN(C)Cc1nnnn1-c1cccc(OC)c1.Cl [9d]

## Result
1: 186.5 to 187.7 °C; 2: 188.7 to 190 °C; 3: 185.6 to 186.4 °C

## Task Sample CC(C)Oc1ccc(-n2nnnc2CNCCN)cc1 (as salt: hydrochloride) [18d] — what was its melting point?
## Result 183.1 to 183.9 °C

====

experiment: WST-8/CCK8 cell viability assay; assay type: cell-based; conditions: human, MDA-MB-231 breast cancer cells; 72 h; read-out: IC50 against MDA-MB-231 (cytotoxicity)
ENDPOINT: IC50 at 72 h

## Task Sample `CNCCN(C)Cc1nnnn1-c1ccc(OC(C)C)cc1.Cl` — what was its IC50 at 72 h?
## Result 541 µM

====

Biological target: UniProt Q99873
Sequence (Q99873 whole entry): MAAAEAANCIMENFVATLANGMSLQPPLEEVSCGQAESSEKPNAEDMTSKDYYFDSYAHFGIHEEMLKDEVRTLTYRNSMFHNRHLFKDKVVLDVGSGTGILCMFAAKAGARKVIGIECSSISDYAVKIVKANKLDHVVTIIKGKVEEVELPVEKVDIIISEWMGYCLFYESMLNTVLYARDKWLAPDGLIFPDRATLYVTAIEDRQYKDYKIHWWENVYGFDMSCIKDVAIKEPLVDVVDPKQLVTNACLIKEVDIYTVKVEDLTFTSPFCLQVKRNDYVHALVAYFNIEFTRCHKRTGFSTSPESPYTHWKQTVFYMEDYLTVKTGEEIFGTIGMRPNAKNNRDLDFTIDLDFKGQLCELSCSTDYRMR
Assay: radioactive PRMT1 methylation inhibition assay ([3H]-SAM, biotinylated histone H4 peptide)
Assay type: biochemical
Conditions: 10 μM compound, initial screening
Experimental: A series of 1,5-substituded tetrazole derivatives were synthesized to investigate the structure-activity relationship (SAR) of PRMT1 inhibitors (Table 1). […] The chemical modification of these compounds is mainly focused on the substituted benzene ring. The initial screening of these compounds was carried out using the radioactive PRMT1 methylation inhibition assay, which measured the amount of methyl groups that transferred from [^3H]-SAM to a biotinylated histone H4 peptide (ac- […](Biotin)). […]
ENDPOINT: inhibition at 10 µM

{"COMPOUND": "CNCCN(C)Cc1nnnn1-c1cccc(OC(F)(F)F)c1.Cl", "inhibition at 10 µM": "-17%"}
{"COMPOUND": "CC(C)Oc1ccc(-n2nnnc2CNCCN)cc1 [18d]", "inhibition at 10 µM": "18%"}
{"COMPOUND": "CC(C)Oc1ccc(-n2nnnc2CN(C)CCN)cc1.Cl [18a]", "inhibition at 10 µM": "50%"}
{"COMPOUND": "CNCCN(C)Cc1nnnn1-c1ccc(OC)cc1.Cl", "inhibition at 10 µM": "3%"}
{"COMPOUND": "CNCCCN(C)Cc1nnnn1-c1cccc(OC(F)(F)F)c1 [10e]", "inhibition at 10 µM": "-12%"}
{"COMPOUND": "CNCCNCc1nnnn1-c1ccc(OC(C)C)cc1.Cl [18c]", "inhibition at 10 µM": "10%"}
{"COMPOUND": "CNCCCN(C)Cc1nnnn1-c1cccc(OC)c1 [10d]", "inhibition at 10 µM": "-14%"}
{"COMPOUND": "CNCCN(C)Cc1nnnn1-c1cccc(OC)c1.Cl", "inhibition at 10 µM": "7%"}
{"COMPOUND": "CNCCCN(C)Cc1nnnn1-c1ccc(OC(C)C)cc1 [10a]", "inhibition at 10 µM": "23%"}
{"COMPOUND": "CNCCN(C)Cc1nnnn1-c1cccc(OCC(F)(F)F)c1 [16d]", "inhibition at 10 µM": "3%"}

// input: 5 compounds below; output: inhibition at 10 µM for each
1. CC(C)Oc1ccc(-n2nnnc2CN(C)CCCN)cc1 [18b]
2. CNCCN(C)Cc1nnnn1-c1ccc(OC(C)C)cc1.Cl
3. CNCCCN(C)Cc1nnnn1-c1ccc(OC)cc1.Cl [10c]
4. CNCCCN(C)Cc1nnnn1-c1cccc(OC(C)C)c1 [10b]
5. CNCCN(C)Cc1nnnn1-c1cccc(OC(C)C)c1

## Result
1: 15%; 2: > 47%; 3: -6%; 4: 0%; 5: 0%

The reported measurements were obtained from paper PMC6695598.
